# target.or.test.system: EP3 receptor (Homo sapiens, UniProt P43115)
# Construct: purchased Millipore HTS092M
# protocol.description: CHO cell cAMP assay (forskolin and sulprostone stimulated, HTRF)
# Type: cell-based
# measurement.conditions: CHO cells; sulprostone 700 nM (EC80) and FSK 2 μM (EC70), 37° C. for 30 minutes; read-out: CHO_cAMP IC50
readout.name: pIC50
For clarity, pIC50 is expressed as the negative log10 of concentration in mol/L.

Worked cases, answers included:
*Q* Query (compound): NC(=O)C1(c2ccc(-c3ccc4ccccc4c3)[nH]c2=O)CC=NN1 (centres unmarked) ; field requested: pIC50
*A* 5.62

*Q* Query (compound): CC1(c2ccc(-c3ccc4ccccc4c3)[nH]c2=O)C(=O)Nc2nncn21 (centres unmarked) ; field requested: pIC50
*A* 5.67

*Q* Query (compound): CC(C)C(CC(=O)NCCN(C)C)c1ccc(-c2ccc3cccc(F)c3c2)[nH]c1=O (centres unmarked) ; field requested: pIC50
*A* 6.62

*Q* Query (compound): Cc1cc(C(c2ncc[nH]2)C(C)C)c(=O)[nH]c1-c1ccc2cccc(F)c2c1 (centres unmarked) ; field requested: pIC50
*A* 6.86

*Q* Query (compound): CCn1cnc2c(F)c(-c3ccc(C(C=C4OC(=O)NC4=O)C(C)C)c(=O)[nH]3)ccc21 (centres unmarked) ; field requested: pIC50
*A* 5.26

*Q* Query (compound): CC(C)C(C(=O)NC1CCNC1)c1ccc(-c2ccc3cccc(F)c3c2)[nH]c1=O (centres unmarked) ; field requested: pIC50
*A* 6.66

*Q* Query (compound): CCN1CCOc2ccc(-c3ccc(C(c4noc(=O)[nH]4)C(C)C)c(=O)[nH]3)cc21 (centres unmarked) ; field requested: pIC50
*A* 6.23

Next up:
*Q* Query (compound): CC(C)C(N/C(N)=N/C#N)c1ccc(-c2ccc3cccc(F)c3c2)[nH]c1=O (centres unmarked) ; field requested: pIC50
*A* 7.77

----------
Parameter IC50: see the listing below.
# target.or.test.system: EP3 receptor (Homo sapiens)
# protocol.description: CHO cell cAMP assay (forskolin and sulprostone stimulated, HTRF)
# measurement.conditions: CHO cells; sulprostone 700 nM (EC80) and FSK 2 μM (EC70), 37° C. for 30 minutes; read-out: CHO_cAMP IC50
Numbers only; they are read as nM.

Worked cases, answers included:
*Q* Query (compound): CC(C)/C(=C1\OC(=O)NC1=O)c1ccc(-c2ccc3cccc(F)c3c2)[nH]c1=O ; field requested: IC50
*A* 680

*Q* Query (compound): CCn1ncc2c(C)cc(-c3ccc(C(/C=C4\OC(=O)NC4=O)C(C)C)c(=O)[nH]3)cc21 (stereo not shown) ; field requested: IC50
*A* 555

*Q* Query (compound): CC(C)C(/C=C1\OC(=O)NC1=O)c1ccc(-c2cc(F)c3cnn(C(C)C)c3c2)[nH]c1=O (stereo not shown) ; field requested: IC50
*A* 278

*Q* Query (compound): CCn1ncc2c(F)cc(-c3ccc(C4=CCN(S(=O)(=O)C(C)C)C4)c(=O)[nH]3)cc21 ; field requested: IC50
*A* 194

*Q* Query (compound): CCN1CCOc2ccc(-c3ccc(C(CN4CCS(=O)(=O)CC4)C(C)C)c(=O)[nH]3)cc21 (stereo not shown) ; field requested: IC50
*A* 375

Next up:
*Q* Query (compound): CCn1ncc2c(F)cc(-c3[nH]c(=O)c(C(/C=C4\OC(=O)NC4=O)C(C)C)cc3C)cc21 (stereo not shown) ; field requested: IC50
*A* 585

----------
# target.or.test.system: EP3 receptor (Homo sapiens, UniProt P43115)
# Construct: purchased Millipore HTS092M
# Sequence (P43115 1-390): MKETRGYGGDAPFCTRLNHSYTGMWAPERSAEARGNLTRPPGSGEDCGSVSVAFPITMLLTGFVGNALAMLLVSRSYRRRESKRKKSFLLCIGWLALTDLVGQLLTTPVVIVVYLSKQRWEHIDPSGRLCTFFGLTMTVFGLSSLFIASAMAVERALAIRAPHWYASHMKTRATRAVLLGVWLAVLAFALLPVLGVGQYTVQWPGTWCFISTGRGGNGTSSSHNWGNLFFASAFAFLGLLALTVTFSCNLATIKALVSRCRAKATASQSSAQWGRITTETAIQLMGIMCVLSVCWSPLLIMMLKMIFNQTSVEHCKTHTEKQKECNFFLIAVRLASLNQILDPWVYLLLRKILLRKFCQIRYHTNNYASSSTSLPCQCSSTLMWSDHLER
# protocol.description: [3H]-PGE2 binding assay (EP3 competition binding)
# measurement.conditions: read-out: [3H]-PGE2 Binding Ki
readout.name: pKi
For clarity, pKi is expressed as the negative log10 of concentration in mol/L.

*Q* Query (molecule): CCn1ncc2c(F)cc(-c3[nH]c(=O)c(C(/C=C4\CCNC4=O)(CC)CC)cc3F)cc21 ; field requested: pKi
*A* 7.60

*Q* Query (molecule): CC(C)C(CC1OC(=O)NC1=O)c1ccc(-c2ccc3cccc(F)c3c2)[nH]c1=O (centres unmarked) ; field requested: pKi
*A* 7.80

*Q* Query (molecule): CC(C)C(NC(N)=O)c1ccc(-c2ccc3cccc(F)c3c2)[nH]c1=O (centres unmarked) ; field requested: pKi
*A* 8.22

*Q* Query (molecule): CCn1ncc2c(F)cc(-c3ccc(C(CC4CCNC4=O)C(C)C)c(=O)[nH]3)cc21 (centres unmarked) [compound 147] ; field requested: pKi
*A* 6.20

*Q* Query (molecule): CC(C)/C(=C1\OC(=O)NC1=O)c1ccc(-c2ccc3cccc(F)c3c2)[nH]c1=O ; field requested: pKi
*A* 6.57

More entries:
*Q* Query (molecule): CCn1ncc2c(F)cc(-c3ccc(C4=CCN(S(=O)(=O)C(C)C)C4)c(=O)[nH]3)cc21 ; field requested: pKi
*A* 8.10

*Q* Query (molecule): CCn1ncc2c(F)cc(-c3ccc(C(CC4CCNC4=O)C(C)C)c(=O)[nH]3)cc21 (centres unmarked) [compound 148] ; field requested: pKi
*A* 6.10

*Q* Query (molecule): CC(C)C(c1ccc(-c2ccc3cccc(F)c3c2)[nH]c1=O)n1cnnc1N (centres unmarked) ; field requested: pKi
*A* 7.89

----------
Parameter pKi: see the listing below.
# target.or.test.system: EP3 receptor (Homo sapiens)
# Construct: purchased Millipore HTS092M
# protocol.description: [3H]-PGE2 binding assay (EP3 competition binding)
# measurement.conditions: read-out: [3H]-PGE2 Binding Ki
For clarity, pKi is expressed as the negative log10 of concentration in mol/L.

Worked cases, answers included:
*Q* Please tell me: pKi of CC(C)C(CC(=O)NCCN(C)C)c1ccc(-c2ccc3cccc(F)c3c2)[nH]c1=O (stereo not shown) [compound 259] , system EP3 receptor (Homo sapiens)?
*A* 7.55

*Q* Please tell me: pKi of CC(C)C(F)(C(=O)NS(=O)(=O)c1cc(F)cc(F)c1)c1ccc(-c2ccc3cccc(F)c3c2)[nH]c1=O (stereo not shown) [compound 173] , system EP3 receptor (Homo sapiens)?
*A* 6.82

*Q* Please tell me: pKi of CCn1ncc2c(F)cc(-c3[nH]c(=O)c(C(CC)(CC)c4ncco4)cc3F)cc21 [Compound #37] , system EP3 receptor (Homo sapiens)?
*A* 7.62

*Q* Please tell me: pKi of CCn1ncc2c(F)cc(-c3[nH]c(=O)c(C(CC)(CC)c4nnc[nH]4)cc3F)cc21 [compound 36] , system EP3 receptor (Homo sapiens)?
*A* 6.71

*Q* Please tell me: pKi of CC1(c2ccc(-c3ccc4ccccc4c3)[nH]c2=O)CNC(N)=N1 (stereo not shown) [compound 287] , system EP3 receptor (Homo sapiens)?
*A* 6.80

More entries:
*Q* Please tell me: pKi of NC(=O)C1(c2ccc(-c3ccc4ccccc4c3)[nH]c2=O)CC=NN1 (stereo not shown) [compound 247] , system EP3 receptor (Homo sapiens)?
*A* 6.11

*Q* Please tell me: pKi of CC(C)C(/C=C1\OC(=O)NC1=O)c1ccc(-c2cc(F)c3cnn(C(C)C)c3c2)[nH]c1=O (stereo not shown) [compound 122] , system EP3 receptor (Homo sapiens)?
*A* 7.49

*Q* Please tell me: pKi of CCn1ncc2c(F)cc(-c3ccc(C(CC)(CC)c4ncc[nH]4)c(=O)[nH]3)cc21 [compound 31] , system EP3 receptor (Homo sapiens)?
*A* 7.43

*Q* Please tell me: pKi of CC(C)C(CC(=O)NCCO)c1ccc(-c2ccc3cccc(F)c3c2)[nH]c1=O (stereo not shown) [compound 258] , system EP3 receptor (Homo sapiens)?
*A* 8.10

*Q* Please tell me: pKi of CCn1ncc2c(F)cc(-c3ccc(C(Cc4noc(=O)[nH]4)C(C)C)c(=O)[nH]3)cc21 (stereo not shown) [Compound #99] , system EP3 receptor (Homo sapiens)?
*A* 6.04

*Q* Please tell me: pKi of CO/N=C1\NCC(c2cc(C)c(-c3ccc4cccc(F)c4c3)[nH]c2=O)(C(C)C)N1 (stereo not shown) [compound 293] , system EP3 receptor (Homo sapiens)?
*A* 7.85

*Q* Please tell me: pKi of CC(C)C1(c2ccc(-c3ccc4cccc(F)c4c3)[nH]c2=O)C(=O)Nc2nccn21 (stereo not shown) [compound 155] , system EP3 receptor (Homo sapiens)?
*A* 8.30

*Q* Please tell me: pKi of CC(C)C(NS(=O)(=O)C1CCCCC1)c1ccc(-c2ccc3cccc(F)c3c2)[nH]c1=O (stereo not shown) [Compound #165] , system EP3 receptor (Homo sapiens)?
*A* 7.51
